Provenance of the data: patent US20250221963A1

tested on: human hepatocytes; experiment: In vitro metabolism identification study in human hepatocytes; conditions: 5-MeO-DMT free base incubated up to 120 minutes at 10 μM
Experimental Readout: Relative Proportion of compounds identified (%)

Compound: COc1ccc2[nH]cc(CC[N+](C)(C)[O-])c2c1 [5-MeO-DMT-N-oxide]
Unit Of Measurement: %
Assay Result: 1
//
Compound: COc1ccc2[nH]cc(CC(=O)O)c2c1
Unit Of Measurement: %
Assay Result: 61
//
Compound: CN(C)CCc1c[nH]c2ccc(O)cc12
Unit Of Measurement: %
Assay Result: 5
//
Compound: COc1ccc2[nH]cc(CCO)c2c1
Unit Of Measurement: %
Assay Result: 25
